Target: Farnesyl diphosphate synthase (Toxoplasma gondii)
Sequence (Q197X6 whole entry): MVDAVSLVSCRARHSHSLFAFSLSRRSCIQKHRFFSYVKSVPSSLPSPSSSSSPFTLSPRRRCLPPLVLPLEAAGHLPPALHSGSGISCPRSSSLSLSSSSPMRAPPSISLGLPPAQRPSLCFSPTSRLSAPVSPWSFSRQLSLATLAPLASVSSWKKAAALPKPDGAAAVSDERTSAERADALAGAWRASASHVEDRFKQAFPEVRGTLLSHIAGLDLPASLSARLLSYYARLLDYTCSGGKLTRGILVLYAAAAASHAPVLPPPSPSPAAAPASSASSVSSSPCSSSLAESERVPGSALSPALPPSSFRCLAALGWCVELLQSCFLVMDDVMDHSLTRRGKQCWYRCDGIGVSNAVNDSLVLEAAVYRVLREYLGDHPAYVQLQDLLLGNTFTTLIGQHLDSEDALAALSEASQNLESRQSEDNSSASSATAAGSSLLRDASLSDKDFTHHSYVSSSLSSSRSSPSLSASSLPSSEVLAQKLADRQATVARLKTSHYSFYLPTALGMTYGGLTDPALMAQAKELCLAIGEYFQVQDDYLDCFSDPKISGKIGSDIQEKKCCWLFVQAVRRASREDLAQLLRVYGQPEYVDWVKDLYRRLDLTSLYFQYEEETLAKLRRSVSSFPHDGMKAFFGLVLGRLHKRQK
Test: Inhibition of Toxoplasma gondii FPPS
pIC50: −log10 of the molar value.

{"molecular.string": "CCCCCCCCNCC(O)(P(=O)(O)O)P(=O)(O)O", "system.tested": "Farnesyl diphosphate synthase (Toxoplasma gondii)", "pIC50": 7.41}
{"molecular.string": "CCCCCCNCC(O)(P(=O)(O)O)P(=O)(O)O", "system.tested": "Farnesyl diphosphate synthase (Toxoplasma gondii)", "pIC50": 7.29}
{"molecular.string": "CCCCCCCCCCNCC(O)(P(=O)(O)O)P(=O)(O)O", "system.tested": "Farnesyl diphosphate synthase (Toxoplasma gondii)", "pIC50": 6.90}
{"molecular.string": "CCCCCNCC(O)(P(=O)(O)O)P(=O)(O)O", "system.tested": "Farnesyl diphosphate synthase (Toxoplasma gondii)", "pIC50": 7.17}
{"molecular.string": "CCCCCCCCC(F)(P(=O)(O)O)P(=O)(O)O", "system.tested": "Farnesyl diphosphate synthase (Toxoplasma gondii)", "pIC50": 7.46}
{"molecular.string": "CCCCCCCCCC(F)(P(=O)(O)O)P(=O)(O)O", "system.tested": "Farnesyl diphosphate synthase (Toxoplasma gondii)", "pIC50": 7.22}

Data provenance: ChEMBL document CHEMBL3098043
